meta.source: IntAct's records for PubMed 29954986

B1: Protein patched homolog 1 (Homo sapiens), Q13635-1 (parent)
chain: MASAGNAAEPQDRGGGGSGCIGAPGRPAGGGRRRRTGGLRRAAAPDRDYLHRPSYCDAAFALEQISKGKATGRKAPLWLRAKFQRLLFKLGCYIQKNCGKFLVVGLLIFGAFAVGLKAANLETNVEELWVEVGGRVSRELNYTRQKIGEEAMFNPQLMIQTPKEEGANVLTTEALLQHLDSALQASRVHVYMYNRQWKLEHLCYKSGELITETGYMDQIIEYLYPCLIITPLDCFWEGAKLQSGTAYLLGKPPLRWTNFDPLEFLEELKKINYQVDSWEEMLNKAEVGHGYMDRPCLNPADPDCPATAPNKNSTKPLDMALVLNGGCHGLSRKYMHWQEELIVGGTVKNSTGKLVSAHALQTMFQLMTPKQMYEHFKGYEYVSHINWNEDKAAAILEAWQRTYVEVVHQSVAQNSTQKVLSFTTTTLDDILKSFSDVSVIRVASGYLLMLAYACLTMLRWDCSKSQGAVGLAGVLLVALSVAAGLGLCSLIGISFNAATTQVLPFLALGVGVDDVFLLAHAFSETGQNKRIPFEDRTGECLKRTGASVALTSISNVTAFFMAALIPIPALRAFSLQAAVVVVFNFAMVLLIFPAILSMDLYRREDRRLDIFCCFTSPCVSRVIQVEPQAYTDTHDNTRYSPPPPYSSHSFAHETQITMQSTVQLRTEYDPHTHVYYTTAEPRSEISVQPVTVTQDTLSCQSPESTSSTRDLLSQFSDSSLHCLEPPCTKWTLSSFAEKHYAPFLLKPKAKVVVIFLFLGLLGVSLYGTTRVRDGLDLTDIVPRETREYDFIAAQFKYFSFYNMYIVTQKADYPNIQHLLYDLHRSFSNVKYVMLEENKQLPKMWLHYFRDWLQGLQDAFDSDWETGKIMPNNYKNGSDDGVLAYKLLVQTGSRDKPIDISQLTKQRLVDADGIINPSAFYIYLTAWVSNDPVAYAASQANIRPHRPEWVHDKADYMPETRLRIPAAEPIEYAQFPFYLNGLRDTSDFVEAIEKVRTICSNYTSLGLSSYPNGYPFLFWEQYIGLRHWLLLFISVVLACTFLVCAVFLLNPWTAGIIVMVLALMTVELFGMMGLIGIKLSAVPVVILIASVGIGVEFTVHVALAFLTAIGDKNRRAVLALEHMFAPVLDGAVSTLLGVLMLAGSEFDFIVRYFFAVLAILTILGVLNGLVLLPVLLSFFGPYPEVSPANGLNRLPTPSPEPPPSVVRFAMPPGHTHSGSDSSDSEYSSQTTVSGLSEELRHYEAQQGAGGPAHQVIVEATENPVFAHSTVVHPESRHHPPSNPRQQPHLDSGSLPPGRQGQQPRRDPPREGLWPPPYRPRRDAFEISTEGHSGPSNRARWGPRGARSHNPRNPASTAMGSSVPGYCQPITTVTASASVTVAVHPPPVPGPGRNPRGGLCPGYPETDHGLFEDPHVPFHVRCERRDSKVEVIELQDVECEERPRGSSSN

variants of: B1; conditions: with shh_human SHH
reported-endpoint: effect of a mutation on the interaction

Some solved entries appear below for comparison.
variant-string | effect of a mutation on the interaction
D513Y | disrupting interaction
G509V | disrupting interaction
L282Q;T500F;P504L | disrupting interaction
T500F;P504L | disrupting interaction

With those in mind, consider the next variant.
Task: Input L282Q , output reported effect of a mutation on the interaction.
Result: disrupting interaction
